Below is a list of entries, each paired with its recorded Cell viability at 100 nM (%) value.
Tested on: MRC5 cells
Experiment: Cell viability assay in MRC5 cells (MTT)
Details: 100 nM

Form field: reported Cell viability at 100 nM (%) of "COC(=O)c1ccc2c(c1)NC(=O)/C2=C(\Nc1ccc(C(=O)NOCCN(C)C)cc1)c1ccccc1" 106%

Next:
Form field: reported Cell viability at 100 nM (%) of "COC(=O)c1ccc2c(c1)NC(=O)/C2=C(\Nc1ccc(C(=O)N(C)OCCN2CCN(C)CC2)cc1)c1ccccc1" 110.8%

Form field: reported Cell viability at 100 nM (%) of "COC(=O)c1ccc2c(c1)NC(=O)/C2=C(\Nc1ccc(S(=O)(=O)N(C)OC)cc1)c1ccccc1" 104.8%

====

Tested on: MRC5 cells
Test: Cell viability assay in MRC5 cells (MTT)
Settings: 300 nM
Strictly below 90% in Cell viability at 300 nM (%): True. Otherwise: False.

Example cases with answers are listed next.
Is Cell viability at 300 nM (%) of "COC(=O)c1cc2c(cc1C)/C(=C(/Nc1ccc(C(=O)N(OC)C3CCN(C)CC3)c(C)c1)c1ccccc1)C(=O)N2" strictly below 90%? True

Is Cell viability at 300 nM (%) of "COC(=O)c1ccc2c(c1)NC(=O)/C2=C(\Nc1ccc(C(=O)NOCCN2CCN(C)CC2)cc1)c1ccccc1" strictly below 90%? False

Next:
Is Cell viability at 300 nM (%) of "COC(=O)c1ccc2c(c1)NC(=O)/C2=C(\Nc1ccc(C(=O)NOCCN2CCOCC2)c(C)c1)c1ccccc1" strictly below 90%? True

====

Test system: MRC5 cells
Assay: Cell viability assay in MRC5 cells (MTT)
Conditions: 300 nM
Below is a list of entries, each paired with its recorded Cell viability at 300 nM (%) value.
Return type: number; implicit unit %.

Form field: reported Cell viability at 300 nM (%) of "COC(=O)c1cc2c(cc1C)/C(=C(/Nc1ccc(C(=O)NOCCCN3CCN(C)CC3)cc1)c1ccccc1)C(=O)N2" 88.6

Next:
Form field: reported Cell viability at 300 nM (%) of "COC(=O)c1cc2c(cc1C)/C(=C(/Nc1ccc(C(=O)NOCCN3CCC(N(C)C)CC3)cc1)c1ccccc1)C(=O)N2" 92.6

Form field: reported Cell viability at 300 nM (%) of "COC(=O)c1cc2c(cc1C)/C(=C(/Nc1ccc(C(=O)NOCCCN(C)C)cc1)c1ccccc1)C(=O)N2" 88.6
